test system: KM12 colon; experiment: NCI tumour cell line growth inhibition, 48 h
Readout label: TGI

Nc1ccc(C(=O)N/C(=C\c2ccc3c(c2)OCO3)c2nc3ccc4c(c3[nH]2)C(=O)c2ccccc2C4=O)cc1 | > 100 µM

Query: Form entry - test system: KM12 colon; read-out: TGI; molecule: CCC1C(=O)OCc2c1cc1n(c2=O)Cc2ccccc2-1 (stereo not drawn)
Reply: > 100 µM

Query: Form entry - test system: KM12 colon; read-out: TGI; molecule: CC1CC2OC(=N)C1(C#N)C2(C#N)C#N (stereo not drawn)
Reply: > 100 µM

----------
system: T-47D breast; experiment: NCI tumour cell line growth inhibition, 48 h
Readout label: TGI

These recorded examples may help you get a feel for the data.
CSC(=N/N=C(\C)c1ccc(S(=O)(=O)N(C)c2ccccc2)cc1)SC | > 100 µM
CC[C@@]1(O)C(=O)N(CCN(C)C)Cc2c1cc1n(c2=O)Cc2cc3ccccc3nc2-1 | > 100 µM

Query: Form entry - test system: T-47D breast; read-out: TGI; molecule: `[O-][n+]1cc(SCc2ccccc2)ncc1SCc1ccccc1`
Reply: > 10 µM
